molecular target: AChE (electric eel) (Electrophorus electricus); experiment: biochemical; settings: at 100 µM; mean ± SD (n = 5); read-out: AChE (%) percentage of inhibition
Sequence (O42275 24-633): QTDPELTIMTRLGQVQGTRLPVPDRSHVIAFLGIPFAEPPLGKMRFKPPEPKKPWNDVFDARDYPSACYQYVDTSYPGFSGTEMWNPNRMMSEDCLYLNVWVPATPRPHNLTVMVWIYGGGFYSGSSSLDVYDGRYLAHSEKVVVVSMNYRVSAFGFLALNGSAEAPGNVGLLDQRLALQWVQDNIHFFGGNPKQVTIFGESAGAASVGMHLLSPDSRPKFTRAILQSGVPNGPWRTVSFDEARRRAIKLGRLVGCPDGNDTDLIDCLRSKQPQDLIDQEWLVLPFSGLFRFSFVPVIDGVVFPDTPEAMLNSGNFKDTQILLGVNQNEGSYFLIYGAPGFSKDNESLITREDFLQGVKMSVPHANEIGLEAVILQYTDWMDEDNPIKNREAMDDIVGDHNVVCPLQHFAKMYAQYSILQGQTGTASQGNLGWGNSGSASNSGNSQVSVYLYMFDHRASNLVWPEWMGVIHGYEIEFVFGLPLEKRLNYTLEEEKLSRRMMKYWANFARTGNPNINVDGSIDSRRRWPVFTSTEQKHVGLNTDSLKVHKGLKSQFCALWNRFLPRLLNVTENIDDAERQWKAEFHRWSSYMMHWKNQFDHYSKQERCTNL
List of inhibition at 100 µM values.
ASSAY METRIC: inhibition at 100 µM (%)

> print(dat)
                    smiles.representation          assay.metric  readout.value
1     CCCCN(C)CCC(=O)c1ccc(NC(=O)OCCC)cc1  inhibition at 100 µM           44.5
2      CCCCN(CC)CCC(=O)c1ccc(NC(=O)OC)cc1  inhibition at 100 µM           23.6
3       COC(=O)Nc1ccc(C(=O)CCN2CCCCC2)cc1  inhibition at 100 µM           74.1
4      CCCCN(C)CCC(=O)c1ccc(NC(=O)OCC)cc1  inhibition at 100 µM           23.5
5  CCCCN(CC)CCC(=O)c1ccc(NC(=O)OCC)cc1.Cl  inhibition at 100 µM           24.6
